Biological target: Paired box protein Pax-8 (Homo sapiens)
Sequence (Q06710 whole entry): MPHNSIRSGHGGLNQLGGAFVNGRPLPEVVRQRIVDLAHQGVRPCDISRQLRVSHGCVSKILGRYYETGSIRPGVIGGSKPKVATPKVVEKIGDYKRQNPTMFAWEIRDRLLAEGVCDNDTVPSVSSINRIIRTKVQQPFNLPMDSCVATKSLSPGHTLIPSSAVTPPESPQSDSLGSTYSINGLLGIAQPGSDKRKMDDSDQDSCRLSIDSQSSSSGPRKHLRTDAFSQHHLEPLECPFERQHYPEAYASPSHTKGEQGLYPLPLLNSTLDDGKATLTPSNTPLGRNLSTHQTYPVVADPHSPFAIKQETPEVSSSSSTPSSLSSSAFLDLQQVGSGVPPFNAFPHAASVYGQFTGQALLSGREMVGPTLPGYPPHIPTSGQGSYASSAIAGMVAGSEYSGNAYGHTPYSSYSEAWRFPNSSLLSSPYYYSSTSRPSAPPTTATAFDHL
Assay: PAX8 transcriptional activity inhibition in RMG-I – RMG-I cells, luciferase, cherry-pick, dose response (AID 687027);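 further: luciferase reporter driven by Pax8 target thyroperoxidase promoter measured by SteadyGlo luminescence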
Assay type: functional, cell-based
The source made the active and inactive calls.

[
  {
    "chemical.smiles": "CS(=O)(=O)Nc1ccc2c(c1)[C@@H]1C[C@H](CC(=O)NCc3ccc(Oc4ccccc4)cc3)O[C@@H](CO)[C@@H]1O2",
    "AC50": "6.4 µM (active)"
  },
  {
    "chemical.smiles": "O=C(Nc1ccc(S(=O)(=O)NC2=NCCCCC2)cc1)c1ccc([N+](=O)[O-])s1",
    "AC50": "5.3 µM (active)"
  },
  {
    "chemical.smiles": "C[C@@H]1CN([C@H](C)CO)C(=O)c2cc(NS(=O)(=O)c3ccc(Cl)cc3)ccc2O[C@@H](C)CCCCO[C@H]1CN(C)C(=O)Nc1ccc(C(F)(F)F)cc1",
    "AC50": "2.86 µM (active)"
  }
]

---

Biological target: UniProt P9WMR3
Sequence (P9WMR3 1-399, added parts left off): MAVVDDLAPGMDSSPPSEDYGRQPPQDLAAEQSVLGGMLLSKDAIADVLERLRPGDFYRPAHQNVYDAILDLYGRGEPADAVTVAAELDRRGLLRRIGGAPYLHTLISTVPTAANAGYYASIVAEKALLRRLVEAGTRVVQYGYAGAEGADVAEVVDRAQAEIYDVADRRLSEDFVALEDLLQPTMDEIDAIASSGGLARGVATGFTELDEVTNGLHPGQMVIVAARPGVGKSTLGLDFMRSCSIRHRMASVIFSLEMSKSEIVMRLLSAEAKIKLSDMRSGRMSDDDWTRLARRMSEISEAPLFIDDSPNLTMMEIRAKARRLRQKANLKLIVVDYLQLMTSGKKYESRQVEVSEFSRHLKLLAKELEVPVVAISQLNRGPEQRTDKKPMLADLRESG
Assay: DnaB intein splicing inhibitors, dose response, biochemical, cell-free fluorescence (AID 449749)
Assay type: functional
Calls of active or inactive are those of the source.
AC50 overview

[
  {
    "molecule": "COc1ccc(C(=O)C2C(c3ccc(-c4ccccc4[N+](=O)[O-])o3)NC(=O)NC2(O)C(F)(F)F)cc1 (stereo not drawn)",
    "AC50": "14.6 µM (active)"
  },
  {
    "molecule": "Brc1ccc(Cn2c(-c3ccc(Br)o3)nc3ccccc32)o1",
    "AC50": "147 µM (active)"
  },
  {
    "molecule": "CCOC(=O)CSCC(=O)N1N=C(c2cccs2)CC1c1ccc(F)cc1 (stereo not drawn)",
    "AC50": "17.7 µM (active)"
  }
]

---

Target: Cytochrome P450 3A4 (Homo sapiens, UniProt P08684);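 further: CYP3A4 tested as one member of a cytochrome P450 panel screen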
Sequence (P08684 whole entry): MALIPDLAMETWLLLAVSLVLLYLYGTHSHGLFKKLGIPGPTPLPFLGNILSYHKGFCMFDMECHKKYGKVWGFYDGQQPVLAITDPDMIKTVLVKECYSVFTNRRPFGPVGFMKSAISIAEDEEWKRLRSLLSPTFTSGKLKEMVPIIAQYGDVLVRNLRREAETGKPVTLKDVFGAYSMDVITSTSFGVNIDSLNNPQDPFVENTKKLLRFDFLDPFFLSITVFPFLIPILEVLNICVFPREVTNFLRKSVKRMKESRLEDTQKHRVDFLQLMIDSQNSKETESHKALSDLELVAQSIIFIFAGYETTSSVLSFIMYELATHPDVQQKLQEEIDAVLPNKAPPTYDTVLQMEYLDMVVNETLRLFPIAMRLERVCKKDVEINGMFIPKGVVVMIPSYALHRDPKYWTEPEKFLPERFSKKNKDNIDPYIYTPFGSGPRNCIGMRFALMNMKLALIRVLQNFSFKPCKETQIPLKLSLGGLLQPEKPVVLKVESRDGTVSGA

[
  {
    "chemical.smiles": "CCOC(=O)C1=C(C)NC(=O)N[C@@H]1c1coc2cc(C)cc(C)c2c1=O",
    "AC50": "3.98 µM (inconclusive)"
  },
  {
    "chemical.smiles": "Cc1nc2cnc(Oc3ccccc3)nc2n(C2CC2)c1=O",
    "AC50": "25.1 µM (inconclusive)"
  },
  {
    "chemical.smiles": "c1cc(CNCCN2CCNCC2)ccn1",
    "AC50": "5.01 µM (inconclusive)"
  },
  {
    "chemical.smiles": "CS(=O)(=O)N1CCC2(CC1)CN(Cc1ccncc1)C2",
    "AC50": "31.6 µM (inconclusive)"
  },
  {
    "chemical.smiles": "Fc1ccc(CSc2ncnc3sc4c(c23)CCCC4)cc1",
    "AC50": "35.5 µM (inconclusive)"
  },
  {
    "chemical.smiles": "O=c1cnc2cnc(Oc3ccccc3)nc2n1Cc1cccs1",
    "AC50": "15.8 µM (inconclusive)"
  },
  {
    "chemical.smiles": "N#CCSc1nc(N)c(C#N)c(C2CCCCC2)c1C#N",
    "AC50": "3.16 µM (inconclusive)"
  },
  {
    "chemical.smiles": "c1ccc2c(c1)CCCc1cc(NCCN3CCOCC3)nnc1-2",
    "AC50": "6.31 µM (inconclusive)"
  },
  {
    "chemical.smiles": "CCN(CC)S(=O)(=O)c1ccc2c3c(cccc13)C(=O)S2",
    "AC50": "17.8 µM (inconclusive)"
  },
  {
    "chemical.smiles": "CCOc1ccc(N/N=C(/C#N)C(N)=O)cc1",
    "AC50": "20 µM (inconclusive)"
  },
  {
    "chemical.smiles": "CCOc1ccc(C(=O)Nc2cccc(-c3nc4cccnc4o3)c2)cc1Cl",
    "AC50": "6.31 µM (inconclusive)"
  },
  {
    "chemical.smiles": "Cc1ccc(SCc2ccc(C(=O)NCc3ccncc3)cc2)cc1",
    "AC50": "7.08 µM (inconclusive)"
  },
  {
    "chemical.smiles": "Cc1nc(NC(N)=Nc2ccccc2)nc2ccccc12",
    "AC50": "39.8 µM (inconclusive)"
  },
  {
    "chemical.smiles": "c1cncc(-c2cc(-c3cc(-c4cccnc4)[nH]n3)n[nH]2)c1",
    "AC50": "5.01 µM (inconclusive)"
  }
]

---

Target: Corticotropin-releasing factor receptor 2/Corticotropin-releasing factor-binding protein (Homo sapiens, UniProt P24387+Q13324)
Sequence (Q13324 whole entry): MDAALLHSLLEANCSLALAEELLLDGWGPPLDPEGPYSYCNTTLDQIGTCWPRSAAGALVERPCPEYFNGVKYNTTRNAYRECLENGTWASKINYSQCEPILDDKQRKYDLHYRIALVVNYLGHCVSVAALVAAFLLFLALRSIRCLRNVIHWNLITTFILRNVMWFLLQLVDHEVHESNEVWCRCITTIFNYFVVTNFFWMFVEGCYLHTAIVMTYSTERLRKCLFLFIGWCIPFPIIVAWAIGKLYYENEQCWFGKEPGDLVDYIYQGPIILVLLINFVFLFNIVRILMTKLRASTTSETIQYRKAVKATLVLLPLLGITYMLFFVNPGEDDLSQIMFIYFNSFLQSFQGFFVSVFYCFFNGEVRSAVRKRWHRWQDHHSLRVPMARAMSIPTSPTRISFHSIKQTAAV
Sequence (P24387 whole entry): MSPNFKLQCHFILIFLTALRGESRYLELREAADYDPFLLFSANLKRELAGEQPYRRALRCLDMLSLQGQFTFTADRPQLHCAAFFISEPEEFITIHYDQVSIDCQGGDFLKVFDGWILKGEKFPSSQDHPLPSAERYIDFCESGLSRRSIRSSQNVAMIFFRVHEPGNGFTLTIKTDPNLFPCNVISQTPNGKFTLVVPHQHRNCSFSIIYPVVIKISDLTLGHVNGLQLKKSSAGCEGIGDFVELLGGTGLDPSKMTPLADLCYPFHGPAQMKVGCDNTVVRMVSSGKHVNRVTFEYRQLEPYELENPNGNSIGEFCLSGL
Assay: Dose Response confirmation of uHTS hits for small molecule antagonists of the CRF-binding protein and CRF-R2 receptor complex.
Format: functional
Conditions: read-out: IC50_Mean
Active and inactive are the calls of the source.
Classes used: Y (active), N (inactive)

[
  {
    "compound": "Cn1c(N)c(C(=O)COC(=O)CNS(=O)(=O)c2ccc(Cl)c(Cl)c2)c(=O)n(C)c1=O",
    "assigned.class": "Y"
  },
  {
    "compound": "CC(NCC(=O)Nc1ccccc1C(=O)NC1CC1)c1cccc(Cl)c1 (configuration not stated)",
    "assigned.class": "N"
  },
  {
    "compound": "CCCn1cc(S(=O)(=O)c2ccccc2)c(=O)c2cc(OCC)ccc21",
    "assigned.class": "N"
  },
  {
    "compound": "COc1cccc(CN(C)C(=O)c2cccc(S(=O)(=O)N3CCN(c4ccccc4)CC3)c2)c1OC",
    "assigned.class": "N"
  },
  {
    "compound": "O=C(CSc1nc[nH]n1)Nc1cc(S(=O)(=O)N2CCCC2)ccc1Cl",
    "assigned.class": "N"
  },
  {
    "compound": "Cc1ccccc1-n1c(CSC(=N)N)nc2ccccc2c1=O",
    "assigned.class": "N"
  },
  {
    "compound": "Cc1ccc(S(=O)(=O)c2nnn3c2nc(N2CCOCC2)c2ccccc23)cc1C",
    "assigned.class": "Y"
  }
]

---

Biological target: UniProt P33261
Sequence (P33261 whole entry): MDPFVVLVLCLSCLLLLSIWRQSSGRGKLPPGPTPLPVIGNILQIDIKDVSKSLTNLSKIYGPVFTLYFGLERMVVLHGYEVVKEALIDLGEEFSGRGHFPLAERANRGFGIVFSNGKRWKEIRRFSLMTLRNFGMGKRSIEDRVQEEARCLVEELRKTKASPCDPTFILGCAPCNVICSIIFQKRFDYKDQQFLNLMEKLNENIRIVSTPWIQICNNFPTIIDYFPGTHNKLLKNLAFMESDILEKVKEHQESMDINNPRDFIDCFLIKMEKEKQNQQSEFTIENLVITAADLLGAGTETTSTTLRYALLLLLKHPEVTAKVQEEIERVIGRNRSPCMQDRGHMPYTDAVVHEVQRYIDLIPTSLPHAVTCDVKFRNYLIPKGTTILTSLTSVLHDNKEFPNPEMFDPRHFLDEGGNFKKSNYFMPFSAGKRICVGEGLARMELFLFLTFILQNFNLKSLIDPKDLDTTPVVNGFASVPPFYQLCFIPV
Test: Cytochrome panel assay with activity outcomes. Panel member name: p450-cyp2c19 Compounds with AC50 equal or less than 10 uM are considered active
Type: functional
Details: read-out: AC50
The following compounds are shown together with reported AC50 values.

[
  {
    "compound": "CSc1ccc(NC(=O)Nc2cc(C)ccn2)cc1",
    "AC50": "3.98 µM (inconclusive)"
  },
  {
    "compound": "CN(C)CCOC(=O)C1(c2ccccc2)CCOCC1",
    "AC50": "20 µM (inconclusive)"
  },
  {
    "compound": "Oc1c(/C=N/c2ccc(Oc3ccccc3)cc2)cnn1-c1cccc(Cl)n1",
    "AC50": "11.2 µM (inconclusive)"
  },
  {
    "compound": "CN(C)C(CNC(=O)NC1CCCCC1)c1cccnc1 (stereo unspecified)",
    "AC50": "25.1 µM (inconclusive)"
  },
  {
    "compound": "CCNc1nc(NCC)nc(N(C)N)n1",
    "AC50": "0.00141 µM (inconclusive)"
  },
  {
    "compound": "S=C(Nc1ccc(Cl)cc1)NC1CC2CCCC(C1)N2C1CCCC1 (stereo unspecified)",
    "AC50": "22.4 µM (inconclusive)"
  }
]
